Test: chemical genetic growth profiling, strain panel (AID 1159580);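 note: tested at 20 µM; growth read once vehicle control cultures reached saturation at 30 °C; 1 = growth at the plate median or of vehicle wells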
Conditions: S. cerevisiae deletion strains, growth OD, locus YPR141C, strain kar3, active compounds read low
About 2,000 (36%) of roughly 5,500 compounds were called active. Inconclusive results (about 18%) are left out. The list shows a part of the results.
metric name: normalized growth
Just the number, please, no unit after it.

CCOC(=O)C(C)(C)Oc1ccc(Cl)cc1: 0.992
COc1cc2c(cc1OC)C(=O)OC2: 1
ClC1=C(Cl)C2(Cl)C3C(Cl)C=CC3C1(Cl)C2(Cl)Cl (stereo not given): 0.982
CC(C)CC(NC(=O)C(Cc1ccccc1)NC(=O)CNC(=O)CNC(=O)C(N)Cc1ccc(O)cc1)C(=O)O (stereo not given): 0.991
C[C@]12CC(=O)C3C(CC[C@@H]4C[C@H](O)CC[C@]34C)C1CC[C@]2(O)C(=O)CO (stereo not given in full): 0.992
COc1cc2c(cc1OC)C1C(=O)c3ccc4c(c3OC1CO2)CCC(C)(C)O4 (stereo not given): 1.01

Query: # input molecule: CC[C@H](/C=C/C(C)C1CCC2C3CCC4=CC(=O)CC[C@]4(C)C3CC[C@]12C)C(C)C (stereo not given in full) ; wanted: its normalized growth
Result: 1.01

Query: # input molecule: NCC1CCC(C(=O)O)CC1 (stereo not given) ; wanted: its normalized growth
Result: 0.998

Query: # input molecule: N=c1ccn2c(n1)O[C@@H]1C2O[C@H](CO)[C@H]1O (stereo not given in full) ; wanted: its normalized growth
Result: 1.01

Query: # input molecule: CC1/C(=N\O)C[C@@H]2C[C@H]1C2(C)C (stereo not given in full) ; wanted: its normalized growth
Result: 1.02

###

Assay: chemical genetic growth profiling, strain panel (AID 1159580)
Conditions: S. cerevisiae deletion strains, growth OD, locus YDL028C, strain MPS1, active compounds read low
Out of some 5,500 compounds screened, about 2,000 (36%) were called active. Roughly 18% stayed inconclusive and do not appear here. The list shows a part of the results.
Readings of normalized growth for the listed molecules

Below are worked cases with known answers.
COc1cc2c(cc1OC)C(C)N(C(=O)c1sc3ccccc3c1Cl)CC2 (centres undefined): 0.982 (inactive)
Cc1ccc(/C=C2\CSc3ccc(F)cc3C2=O)cc1: 0.932 (inactive)
O=c1c(Sc2ccc(Cl)cc2)c(Sc2ccc(Cl)cc2)c1=O: 0.973 (inactive)

Please turn your attention to the following entry.
Query: # input molecule: "COc1cc(NC(=S)NNS(=O)(=O)c2ccc(C)cc2)c(OC)cc1Cl" ; wanted: its normalized growth
Result: 0.982 (inactive)

###

Test: chemical genetic growth profiling, strain panel (AID 1159580)
Details: S. cerevisiae deletion strains, growth OD, locus YDL040C, strain nat1, active compounds read low
Hit rate of the full screen: of about 5,500 compounds, about 2,000 (36%) were called active. Roughly 18% stayed inconclusive and do not appear here. The list shows a part of the results.
metric name: normalized growth
Just the number, please, no unit after it.

Below are worked cases with known answers.
COP(=O)(OC)OC=C(Cl)Cl: 0.989
CC1=C(/C=C/C(C)=C/C=C/C(C)=C/C=C/C=C(C)/C=C/C=C(C)/C=C/C2=C(C)C(=O)CCC2(C)C)C(C)(C)CCC1=O: 0.978
OCCN1C[C@@H](O)[C@@H](O)C(O)C1CO (some centres undefined): 1

Please turn your attention to the following entry.
Query: # input compound: ClC1=C(Cl)C2(Cl)C3C4C=CC(C4)C3C1(Cl)C2(Cl)Cl (centres undefined) ; wanted: its normalized growth
Result: 0.998

###

Assay: chemical genetic growth profiling, strain panel (AID 1159580)
Conditions: S. cerevisiae deletion strains, growth OD, locus YAL026C, strain drs2, active compounds read low
Among all 5,500 compounds or so, about 2,000 (36%) were called active. About 18% were inconclusive and are not listed. The list shows a part of the results.
metric name: normalized growth
Just the number, please, no unit after it.

c1cncc(C2CCCCN2)c1 (configuration not stated): 0.999
CC1=C(CC(=O)O)c2cc(F)ccc2/C1=C\c1ccc(S(C)=O)cc1 (configuration not stated): 1.02
C=Cc1c2[nH]c(c1C)C=c1[nH]c(c(C)c1C=C)=CC1N=C(C=c3[nH]c(c(C)c3CCC(=O)O)=C2)C(CCC(=O)O)=C1C (configuration not stated): 1.02

Query: # input compound: C[C@]12CCC(=O)C=C1CCC1C2CC[C@@]2(C)C1CC[C@@H]2O (some centres not stated) ; wanted: its normalized growth
Result: 1

Query: # input compound: "CN[C@@H](C)[C@@H](O)c1ccccc1" ; wanted: its normalized growth
Result: 0.995

Query: # input compound: CNC(C)[C@H](O)c1ccccc1 (some centres not stated) ; wanted: its normalized growth
Result: 1.01

Query: # input compound: "COc1ccc2c3c1O[C@H]1C[C@@H](O)C=C[C@@]31CCN(C)C2" ; wanted: its normalized growth
Result: 0.993

###

Experiment: chemical genetic growth profiling, strain panel (AID 1159580)
Conditions: S. cerevisiae deletion strains, growth OD, locus YGR229C, strain SMI1
Out of some 5,500 compounds screened, about 2,000 (36%) were called active. Roughly 18% stayed inconclusive and do not appear here. No stated cut-off is given here; in the data, active means normalized growth mostly below about 0.91 (no sharp cut-off); inconclusive means no clear call, values can overlap the other calls; inactive means mostly above about 0.92. The list shows a part of the results.
Pick one: active, inactive

NC(=O)c1ccc[n+]([C@@H]2O[C@H](COP(=O)([O-])OP(=O)(O)OC[C@H]3O[C@@H](n4cnc5c(N)ncnc54)[C@H](O)[C@@H]3O)[C@@H](O)[C@H]2O)c1: inactive
COC1=CC(=O)C[C@@H](C)[C@]12Oc1c(Cl)c(OC)cc(OC)c1C2=O: inactive
COc1cc(NS(=O)(=O)c2ccc(N)cc2)nc(OC)n1: inactive
COP(=O)(OC)OC=C(Cl)Cl: inactive
ClC1=C(Cl)C2(Cl)C3C(Cl)C=CC3C1(Cl)C2(Cl)Cl (configuration not stated): inactive
CCCCCCCCCCCCCCCC[N+](C)(C)C: active

Query: Short answer needed: outcome of this test for "CCOC(=O)COc1nc(-c2cccs2)cc(C(F)(F)F)c1C#N" ?
Result: inactive

###

Assay: chemical genetic growth profiling, strain panel (AID 1159580);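 note: tested at 20 µM; growth read once vehicle control cultures reached saturation at 30 °C; 1 = growth at the plate median or of vehicle wells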
Details: S. cerevisiae deletion strains, growth OD, locus YNL153C, strain GIM3, active compounds read low
The campaign covered roughly 5,500 compounds. About 2,000 (36%) were called active. Roughly 18% stayed inconclusive and do not appear here. Some of the results follow.
metric name: normalized growth
Just the number, please, no unit after it.

O=C1c2cccc3cc([N+](=O)[O-])cc(c23)C(=O)N1CCO: 1.02
COc1ccc(CCNC[C@@H](O)c2ccc(O)cc2)cc1OC: 0.999
COc1cccc(OC)c1C(C)(O)C(OC)OC (centres undefined): 0.994

Query: # input compound: CCOC(=O)C(=O)C1(C(=O)OCC)Oc2cc(OC)cc(OC)c2C(=O)C1c1ccccc1 (centres undefined) ; wanted: its normalized growth
Result: 0.986

Query: # input compound: "Cc1cc(O)c(C)c(O)c1C(=O)O" ; wanted: its normalized growth
Result: 0.988

Query: # input compound: "COc1cc(/C=C2\NC(=O)NC2=O)ccc1O" ; wanted: its normalized growth
Result: 0.98

Query: # input compound: "NC(=O)c1ccc[n+]([C@@H]2O[C@H](COP(=O)([O-])OP(=O)(O)OC[C@H]3O[C@@H](n4cnc5c(N)ncnc54)[C@H](O)[C@@H]3O)[C@@H](O)[C@H]2O)c1" ; wanted: its normalized growth
Result: 1.02

Query: # input compound: "CCOC(=O)C(=CNc1cccc(C#N)c1)C(=O)OCC" ; wanted: its normalized growth
Result: 1.01

Query: # input compound: "COc1ccc2c3c1O[C@H]1C[C@@H](O)C=C[C@@]31CCN(C)C2" ; wanted: its normalized growth
Result: 0.982

###

Test: chemical genetic growth profiling, strain panel (AID 1159580);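 note: tested at 20 µM; growth read once vehicle control cultures reached saturation at 30 °C; 1 = growth at the plate median or of vehicle wells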
Settings: S. cerevisiae deletion strains, growth OD, locus YJL129C, strain trk1, active compounds read low
Out of some 5,500 compounds screened, about 2,000 (36%) were called active. Another 18% or so got no clear call; they are omitted. The list shows a part of the results.
Please respond with satisfied when measured normalized growth is strictly beneath 0.9, and with not satisfied in all other cases.

The examples below pair each entry with its known result.
COC1=C(OC)C(=O)C(C/C=C(\C)CC/C=C(\C)CC/C=C(\C)CC/C=C(/C)CC/C=C(\C)CC/C=C(\C)CC/C=C(\C)CC/C=C(\C)CC/C=C(\C)CCC=C(C)C)=C(C)C1=O: not satisfied
COc1cc(/C=C/C(=O)/C=C(O)/C=C/c2ccc(O)c(OC)c2)ccc1O: satisfied

--- query ---
Query: For this molecule, is normalized growth lower than 0.9? "COc1cc(O)c(C(=O)/C=C/c2ccccc2)c(OC)c1"
Result: satisfied

###

Assay: chemical genetic growth profiling, strain panel (AID 1159580);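 note: tested at 20 µM; growth read once vehicle control cultures reached saturation at 30 °C; 1 = growth at the plate median or of vehicle wells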
Details: S. cerevisiae deletion strains, growth OD, locus YBR021W, strain FUR4, active compounds read low
The campaign covered roughly 5,500 compounds. About 2,000 (36%) were called active. Another 18% or so got no clear call; they are omitted. This is one part of the list.
Please respond with true when measured normalized growth is strictly beneath 1, and with false in all other cases.

O=C(CC[N+](=O)[O-])OC[C@H]1O[C@@H](O)[C@H](OC(=O)CC[N+](=O)[O-])[C@@H](OC(=O)CC[N+](=O)[O-])[C@@H]1OC(=O)CC[N+](=O)[O-]: false

Query: For this compound, is normalized growth lower than 1? CCCCCCCCNC(C)C(O)c1ccc(SC(C)C)cc1 (configuration not stated)
Result: true
